B1: ATL3 (parent)
chain: FSFRYQQELEEEIKELYENFCKHN

Variants of: B1
Assay: protein stability index of a GFP-peptide fusion (GPS, HEK-293T) (PSI 1-6); higher = more stable;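 note: lentivirally expressed fusions sorted by FACS into six bins by GFP to DsRed ratio, PSI derived from sequencing read proportions per bin multiplied by bin number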
Settings: c terminus: a fixed tail appended
Items are presented alongside their recorded protein stability index.
Give only the figure.

A selection of reference data follows.
CHAIN SEQUENCE | protein stability index
FSFRYQQELEEEIKELYENFCKEN | 2.63
FSFRYQQELEEEIKELMENFCKHN | 2.68
FSFRYQQELEEEIKELYENECKHN | 3.58
FNFRYQQELEEEIKELYENFCKHN | 2.37
FSFRYQQELWEEIKELYENFCKHN | 2.02
FSFRYQQELEGEIKELYENFCKHN | 2.21
FSFRYQQELEEEIKSLYENFCKHN | 2.03
MSFRYQQELEEEIKELYENFCKHN | 2.03
FSFRYQQELEEEIKELYPNFCKHN | 1.77
FSFRYQQELEEEAKELYENFCKHN | 2.31

Could you now look at the following variant, please?
Query: protein stability index lookup needed for `FSFRYQQELEEEIKELYENFCKPN` , thanks.
Reply: 1.6

Ref: the supplement of paper PMC10567573
